System: LXF-289
Experiment: relative viability (nuclei count vs DMSO), 5 days (fraction); higher = more cells survive
Conditions: first compound 0.5 µM
quantity.measured: relative viability
Keep the answer to the number alone.

Would you please look over these solved cases?
compound: Nc1ccn([C@@H]2O[C@H](CO)[C@@H](O)[C@@H]2O)c(=O)n1 [Cytarabine] + C[C@@H](Oc1cc(-c2cnn(C3CCNCC3)c2)cnc1N)c1c(Cl)ccc(F)c1Cl [Crizotinib] (partner 1 µM)
relative viability: 0.389

compound: Nc1ccn([C@@H]2O[C@H](CO)[C@@H](O)[C@@H]2O)c(=O)n1 [Cytarabine] + CS(=O)(=O)CCNCc1ccc(-c2ccc3ncnc(Nc4ccc(OCc5cccc(F)c5)c(Cl)c4)c3c2)o1 [Lapatinib] (partner 2 µM)
relative viability: 0.339

compound: COc1cc2nccc(Oc3ccc(NC(=O)Nc4cc(C)on4)c(Cl)c3)c2cc1OC [Tivozanib] + CC(=O)c1c(C)c2cnc(Nc3ccc(N4CCNCC4)cn3)nc2n(C2CCCC2)c1=O [Palbociclib] (partner 0.5 µM)
relative viability: 0.612

With those in mind, consider the next compound.
What the record says about COc1cc2nccc(Oc3ccc(NC(=O)Nc4cc(C)on4)c(Cl)c3)c2cc1OC [Tivozanib] + Cc1cc(Nc2cc(N3CCN(C)CC3)nc(Sc3ccc(NC(=O)C4CC4)cc3)n2)n[nH]1 [Tozasertib] (partner 0.1 µM) : relative viability is 0.23

---

Tested on: COR-L23
Assay: relative viability (nuclei count vs DMSO), 5 days (fraction); higher = more cells survive
Conditions: first compound 0.4 µM
So basically: is relative viability under 0.5? Then YES. Not under? Then NO.

# strict comparison: is reported relative viability < 0.5? input = Cc1sc2c(c1C)C(c1ccc(Cl)cc1)=N[C@@H](CC(=O)OC(C)(C)C)c1nnc(C)n1-2 [JQ1] + COc1cccc2cc(-c3nc([C@H]4CC[C@H](C(=O)O)CC4)n4ncnc(N)c34)[nH]c12 [OSI-027] (partner 0.5 µM)
NO

---

Tested on: NCI-H1666
Experiment: relative viability (nuclei count vs DMSO), 5 days (fraction); higher = more cells survive
Conditions: first compound 0.05 µM
So basically: is relative viability under 0.8? Then 1 (yes). Not under? Then 0 (no).

Example results:
molecule: Nc1ccn([C@@H]2O[C@H](CO)[C@@H](O)[C@@H]2O)c(=O)n1 [Cytarabine] + CC(=O)Nc1cccc(-n2c(=O)n(C3CC3)c(=O)c3c(Nc4ccc(I)cc4F)n(C)c(=O)c(C)c32)c1 [Trametinib] (partner 0.02 µM)
target.of.assay: NCI-H1666
classification: 1 (yes)
//
molecule: Nc1ccn([C@@H]2O[C@H](CO)[C@@H](O)[C@@H]2O)c(=O)n1 [Cytarabine] + O=C(CCCCCCC(=O)Nc1ccccc1)NO [Vorinostat] (partner 1 µM)
target.of.assay: NCI-H1666
classification: 1 (yes)
//
molecule: COc1cc2nccc(Oc3ccc(NC(=O)Nc4cc(C)on4)c(Cl)c3)c2cc1OC [Tivozanib] + COc1cc2c(Oc3ccc(NC(=O)C4(C(=O)Nc5ccc(F)cc5)CC4)cc3F)ccnc2cc1OCCCN1CCOCC1 [Foretinib] (partner 0.25 µM)
target.of.assay: NCI-H1666
classification: 0 (no)
//
molecule: COc1cc2nccc(Oc3ccc(NC(=O)Nc4cc(C)on4)c(Cl)c3)c2cc1OC [Tivozanib] + Cc1cc(Nc2cc(N3CCN(C)CC3)nc(Sc3ccc(NC(=O)C4CC4)cc3)n2)n[nH]1 [Tozasertib] (partner 0.1 µM)
target.of.assay: NCI-H1666
classification: 1 (yes)
//
molecule: COc1cc2nccc(Oc3ccc(NC(=O)Nc4cc(C)on4)c(Cl)c3)c2cc1OC [Tivozanib] + Cc1nc(NC(=O)N2CCC[C@H]2C(N)=O)sc1-c1ccnc(C(C)(C)C(F)(F)F)c1 [Alpelisib] (partner 2 µM)
target.of.assay: NCI-H1666
classification: 0 (no)

# strict comparison: is reported relative viability < 0.8? input = Nc1ccn([C@@H]2O[C@H](CO)[C@@H](O)[C@@H]2O)c(=O)n1 [Cytarabine] + Cc1nc(Nc2ncc(C(=O)Nc3c(C)cccc3Cl)s2)cc(N2CCN(CCO)CC2)n1 [Dasatinib] (partner 0.075 µM)
1 (yes)

# strict comparison: is reported relative viability < 0.8? input = COc1cc2nccc(Oc3ccc(NC(=O)Nc4cc(C)on4)c(Cl)c3)c2cc1OC [Tivozanib] + O=C(c1cc(Cc2n[nH]c(=O)c3ccccc23)ccc1F)N1CCN(C(=O)C2CC2)CC1 [Olaparib] (partner 8 µM)
1 (yes)

# strict comparison: is reported relative viability < 0.8? input = COc1cc2nccc(Oc3ccc(NC(=O)Nc4cc(C)on4)c(Cl)c3)c2cc1OC [Tivozanib] + CC(C)C[C@H](NC(=O)[C@H](Cc1ccccc1)NC(=O)c1cnccn1)B(O)O [Bortezomib] (partner 0.002 µM)
0 (no)

# strict comparison: is reported relative viability < 0.8? input = COc1cc2nccc(Oc3ccc(NC(=O)Nc4cc(C)on4)c(Cl)c3)c2cc1OC [Tivozanib] + CC1(C)CCC(c2ccc(Cl)cc2)=C(CN2CCN(c3ccc(C(=O)NS(=O)(=O)c4ccc(N[C@H](CCN5CCOCC5)CSc5ccccc5)c(S(=O)(=O)C(F)(F)F)c4)cc3)CC2)C1 [Navitoclax] (partner 0.5 µM)
0 (no)

---

Listed molecules paired with reported relative viability
System: NCI-H358
Test: relative viability (nuclei count vs DMSO), 5 days (fraction); higher = more cells survive
Details: first compound 0.1581 µM
Keep the answer to the number alone.

molecule: Nc1ccn([C@@H]2O[C@H](CO)[C@@H](O)[C@@H]2O)c(=O)n1 [Cytarabine] + COc1cccc2cc(-c3nc([C@H]4CC[C@H](C(=O)O)CC4)n4ncnc(N)c34)[nH]c12 [OSI-027] (partner 0.5 µM)
target.of.assay: NCI-H358
quantity.measured: relative viability
recorded.value: 0.104

What the record says about Nc1ccn([C@@H]2O[C@H](CO)[C@@H](O)[C@@H]2O)c(=O)n1 [Cytarabine] + O=C(c1cc(Cc2n[nH]c(=O)c3ccccc23)ccc1F)N1CCN(C(=O)C2CC2)CC1 [Olaparib] (partner 8 µM) : relative viability is 0.145

What the record says about COc1cc2nccc(Oc3ccc(NC(=O)Nc4cc(C)on4)c(Cl)c3)c2cc1OC [Tivozanib] + C[C@@H](Oc1cc(-c2cnn(C3CCNCC3)c2)cnc1N)c1c(Cl)ccc(F)c1Cl [Crizotinib] (partner 1 µM) : relative viability is 0.604

What the record says about COc1cc2nccc(Oc3ccc(NC(=O)Nc4cc(C)on4)c(Cl)c3)c2cc1OC [Tivozanib] + O=C(CCCCCCC(=O)Nc1ccccc1)NO [Vorinostat] (partner 1 µM) : relative viability is 0.62

What the record says about COc1cc2nccc(Oc3ccc(NC(=O)Nc4cc(C)on4)c(Cl)c3)c2cc1OC [Tivozanib] + Nc1ncn([C@H]2C[C@H](O)[C@@H](CO)O2)c(=O)n1 [Decitabine] (partner 2 µM) : relative viability is 0.222

What the record says about Nc1ccn([C@@H]2O[C@H](CO)[C@@H](O)[C@@H]2O)c(=O)n1 [Cytarabine] + NC(=O)Nc1cc(-c2cccc(F)c2)sc1C(=O)N[C@H]1CCCNC1 [AZD7762] (partner 0.2 µM) : relative viability is 0.221

What the record says about Nc1ccn([C@@H]2O[C@H](CO)[C@@H](O)[C@@H]2O)c(=O)n1 [Cytarabine] + CCNC(=O)c1noc(-c2cc(C(C)C)c(O)cc2O)c1-c1ccc(CN2CCOCC2)cc1 [Luminespib] (partner 0.01 µM) : relative viability is 0.144

What the record says about COc1cc2nccc(Oc3ccc(NC(=O)Nc4cc(C)on4)c(Cl)c3)c2cc1OC [Tivozanib] + COc1cc2c(Oc3ccc(NC(=O)C4(C(=O)Nc5ccc(F)cc5)CC4)cc3F)ccnc2cc1OCCCN1CCOCC1 [Foretinib] (partner 0.25 µM) : relative viability is 0.639

---

Listed compounds paired with reported relative viability
System: NCI-H1792
Test: relative viability (nuclei count vs DMSO), 5 days (fraction); higher = more cells survive
Settings: first compound 0.5 µM
Keep the answer to the number alone.

Would you please look over these solved cases?
compound: COc1cc2nccc(Oc3ccc(NC(=O)Nc4cc(C)on4)c(Cl)c3)c2cc1OC [Tivozanib] + CS(=O)(=O)N1CCN(Cc2cc3nc(-c4cccc5[nH]ncc45)nc(N4CCOCC4)c3s2)CC1 [Pictilisib] (partner 1 µM)
relative viability: 0.274

compound: Nc1ccn([C@@H]2O[C@H](CO)[C@@H](O)[C@@H]2O)c(=O)n1 [Cytarabine] + CC(C)C[C@H](NC(=O)[C@H](Cc1ccccc1)NC(=O)c1cnccn1)B(O)O [Bortezomib] (partner 0.002 µM)
relative viability: 0.55

compound: Nc1ccn([C@@H]2O[C@H](CO)[C@@H](O)[C@@H]2O)c(=O)n1 [Cytarabine] + CCNC(=O)c1noc(-c2cc(C(C)C)c(O)cc2O)c1-c1ccc(CN2CCOCC2)cc1 [Luminespib] (partner 0.01 µM)
relative viability: 0.271

What the record says about Nc1ccn([C@@H]2O[C@H](CO)[C@@H](O)[C@@H]2O)c(=O)n1 [Cytarabine] + O=C(c1cc(Cc2n[nH]c(=O)c3ccccc23)ccc1F)N1CCN(C(=O)C2CC2)CC1 [Olaparib] (partner 8 µM) : relative viability is 0.0776

What the record says about COc1cc2nccc(Oc3ccc(NC(=O)Nc4cc(C)on4)c(Cl)c3)c2cc1OC [Tivozanib] + C[C@]1(O)C[C@@H](c2nc(-c3ccc4ccc(-c5ccccc5)nc4c3)c3c(N)nccn32)C1 [Linsitinib] (partner 1 µM) : relative viability is 0.592
